Test system: NOMO1
Assay: cell viability relative to DMSO control; higher = less cytotoxic
Conditions: RPMI 5 mM glucose + 10% dialyzed FBS; 48 h; 1.71 µM
Let's look at some compounds and their measured cell viability.

# compound, cell viability [%]
rows = [
    ("CC[C@H](C)[N]1C=C(C)C2=C1C=C(C=C2C(=O)NC\\C3=C(C)\\C=C(\\C)NC3=O)C4=CC=C(N=C4)N5CCNCC5", 138),
    ("Cc1cccc(Nc2nc(-c3ccncc3)cs2)c1", 129),
    ("COC1=CC=C(C=C1)C/2=C/OC3=C(C(=CC(=C3)O)O)C2=O", 140),
    ("C#C[C@]1(O)CC[C@H]2[C@@H]3CCc4cc(O)ccc4[C@H]3CC[C@@]21C", 78.3),
    ("CN1CCCN=C1/C=C/c1cccs1.O=C(O)c1cc2ccccc2c(Cc2c(O)c(C(=O)O)cc3ccccc23)c1O", 110),
    ("COc1ccc(C2CNC(=O)C2)cc1OC1CCCC1 (centres undefined)", 94.7),
    ("Cc1c(C(=O)NN2CCCCC2)nn(-c2ccc(Cl)cc2Cl)c1-c1ccc(Cl)cc1", 46.8),
    ("CCC(C)(C)c1ccc(CC(C)CN2C[C@@H](C)O[C@@H](C)C2)cc1 (some centres undefined)", 84),
    ("Cc1[nH]c2ccccc2c1CCNCc1ccc(/C=C/C(=O)NO)cc1", 13),
]

###

Let's look at some molecules and their measured cell viability.
System: SEM cells
Test: cell viability relative to DMSO control; higher = less cytotoxic
Conditions: HPLM + 10% dialyzed FBS; 48 h; 46.1 µM
readout label: cell viability (%)

# molecule, readout label, unit symbol, result
measured = [
    ("C[C@@]12C[C@@]3(O)O[C@@H](O1)[C@]1(COC(=O)c4ccccc4)[C@H]3C[C@@]12O[C@@H]1O[C@H](CO)[C@@H](O)[C@H](O)[C@H]1O", "cell viability", "%", 107),
    ("COCCCN1CCC(NC(=O)c2cc(Cl)c(N)c3c2OCC3)CC1", "cell viability", "%", 114),
    ("CCOC(=O)\\C1=C(/C)N\\C2=C(C1C3=CC=C(C=C3)C4=CC=CC=C4)\\C(=O)CC(C)(C)C2 (centres undefined)", "cell viability", "%", 60.4),
    ("CNC(=O)c1ccc(N2C(=S)N(c3ccc(C#N)c(C(F)(F)F)c3)C(=O)C23CCC3)cc1F", "cell viability", "%", 97.3),
]

###

Tested on: NOMO1
Assay: cell viability relative to DMSO control; higher = less cytotoxic
Settings: HPLM + 10% dialyzed FBS; 48 h; 15.4 µM

# compound, cell viability, %
measured = [
    ("C[C@]1(c2nc3c(C(N)=O)cccc3[nH]2)CCCN1", 93),
    ("C/C=C(/C)C(=O)O[C@H]1C(C)=C[C@]23C(=O)[C@@H](C=C(CO)[C@@H](O)[C@]12O)[C@H]1[C@@H](C[C@H]3C)C1(C)C", 61.5),
    ("O=C(O)c1ccc2c(c1)nc(Nc1cccc(Cl)c1)c1ccncc12", 49.2),
    ("S=P(N1CC1)(N1CC1)N1CC1", 104),
    ("CNC(=O)c1ccc(N2C(=S)N(c3ccc(C#N)c(C(F)(F)F)c3)C(=O)C23CCC3)cc1F", 93.2),
    ("O=C(NC[C@H](O)CO)c1ccncc1Nc1ccc(I)cc1F", 38.6),
    ("C=C[C@H]1CN2CC[C@H]1C[C@H]2[C@H](O)c1ccnc2ccc(OC)cc12", 101),
    ("N=C(NCCCCCCNC(=N)NC(=N)Nc1ccc(Cl)cc1)NC(=N)Nc1ccc(Cl)cc1", 87.6),
    ("C\\C1=C(\\C=C(\\C#N)C(=O)N1)C2=CC=NC=C2", 103),
    ("O=C(Nc1ccc(F)c(C(F)(F)F)c1)Nc1nnc(-c2ccncc2)s1", 108),
    ("CN(NC(=O)CC(=O)NN(C)C(=S)c1ccccc1)C(=S)c1ccccc1", 4.38),
    ("CN1CCCN=C1/C=C/c1cccs1.O=C(O)c1cc2ccccc2c(Cc2c(O)c(C(=O)O)cc3ccccc23)c1O", 34.1),
    ("CC(N)C12CC3CC(CC(C3)C1)C2 (stereo not drawn)", 85.1),
    ("COc1cc(OC)c(/C=C/[S+](=O)([O-])Cc2ccc(OC)c(NCC(=O)[O][Na])c2)c(OC)c1", 42.5),
    ("CC(C)C(=O)Oc1ccc(CO)cc1[C@H](CCN(C(C)C)C(C)C)c1ccccc1", 81.1),
    ("CN(C)[C@H]\\1[C@@H]2C[C@H]3C(=C(O)\\[C@]2(O)C(=O)\\C(=C1O)C(N)=O)/C(=O)C4=C(O)C=CC=C4[C@@]3(C)O", 97.1),
    ("COc1cc2nccc(Oc3ccc(NC(=O)NC4CC4)c(Cl)c3)c2cc1C(N)=O", 78.1),
    ("CC1(C)O[C@@H]2C[C@H]3[C@@H]4CCC5=CC(=O)C=C[C@]5(C)[C@H]4[C@@H](O)C[C@]3(C)[C@]2(C(=O)CO)O1", 91.9),
]

###

Let's look at some compounds and their measured cell viability.
Tested on: P12-Ichikawa
Assay: cell viability relative to DMSO control; higher = less cytotoxic
Settings: HPLM + 10% dialyzed FBS; 48 h; 0.000781 µM
readout label: cell viability (%)

# compound, result
measured = [
    ("S=P(N1CC1)(N1CC1)N1CC1", 110),
    ("CC(C)C[C@H](NC(=O)[C@H](CCc1ccccc1)NC(=O)CN1CCOCC1)C(=O)N[C@@H](Cc1ccccc1)C(=O)N[C@@H](CC(C)C)C(=O)[C@@]1(C)CO1", 86.2),
    ("CCC[C@H]1C[C@H](C(=O)N[C@@H]([C@@H]2O[C@@H](SC)[C@@H](O)[C@@H](O)[C@H]2O)[C@H](C)Cl)N(C)C1", 103),
    ("CN(C)C1=CC=C(C=C1)C(C2=CC=C(C=C2)N(C)C)=C/3\\C=C/C(/C=C3)=[N+](C)C", 114),
    ("CN[C@@H]1[C@H](O)[C@H](NC)[C@H]2O[C@@]3(O)C(=O)C[C@@H](C)O[C@H]3O[C@@H]2[C@H]1O", 118),
    ("COc1ccc(-c2ccc3c(N4CCOC[C@@H]4C)nc(N4CCOC[C@@H]4C)nc3n2)cc1CO", 108),
    ("C/C=C1\\C2C=C(C)CC1(N)c1ccc(=O)[nH]c1C2 (stereo not drawn)", 102),
    ("COc1ccc(-c2nc(N3CCOCC3)c3sc(CN(C)c4ncc(C(=O)NO)cn4)cc3n2)cn1", 109),
]

###

Tested on: P12-Ichikawa
Experiment: cell viability relative to DMSO control; higher = less cytotoxic
Conditions: RPMI 5 mM glucose + 10% FBS; 48 h; 1.71 µM
Could you please mark MET for values of cell viability below 60% and NOT MET for values at or above it?

# compound smiles, label value
measured = [
    ("CCOC(=O)C/1=C(O)/C(=O)N(CC2=CC=CC=C2)C1", "NOT MET"),
    ("CC(C)(C)c1[nH]cnc1/C=c1\\[nH]c(=O)/c(=C/c2ccccc2)[nH]c1=O", "MET"),
    ("O=C1c2c(O)ccc(O)c2C(=O)c2c(NCCNCCO)ccc(NCCNCCO)c21", "MET"),
    ("CC(C)CC(=O)N[C@H](C(=O)N[C@H](C(=O)N[C@@H](CC(C)C)[C@@H](O)CC(=O)N[C@@H](C)C(=O)N[C@@H](CC(C)C)[C@@H](O)CC(=O)O)C(C)C)C(C)C", "NOT MET"),
    ("C/C=C(/C)C(=O)O[C@H]1C(C)=C[C@]23C(=O)[C@@H](C=C(CO)[C@@H](O)[C@]12O)[C@H]1[C@@H](C[C@H]3C)C1(C)C", "NOT MET"),
    ("Cc1cn(-c2cc(NC(=O)c3ccc(C)c(Nc4nccc(-c5cccnc5)n4)c3)cc(C(F)(F)F)c2)cn1", "MET"),
    ("O=C(Nc1ccccc1-c1cn2c(CN3CCNCC3)csc2n1)c1cnc2ccccc2n1", "NOT MET"),
]

###

System: SEM cells
Assay: cell viability relative to DMSO control; higher = less cytotoxic
Details: RPMI 5 mM glucose + 10% FBS; 48 h; 0.00702 µM

# molecule, cell viability [%]
measured = [
    ("CC[C@@]1(O)C(=O)OC\\C2=C1\\C=C3/N(CC4=CC5=C(C=CC(=C5CN(C)C)O)N=C34)C2=O", 87.2),
    ("CCn1c(-c2nonc2N)nc2cnc(Oc3cccc(NC(=O)c4ccc(OCCN5CCOCC5)cc4)c3)cc21", 108),
    ("COc1cc2ncnc(Nc3ccc(F)c(Cl)c3)c2cc1NC(=O)/C=C/CN1CCCCC1", 120),
    ("CC(C)(C)c1[nH]cnc1/C=c1\\[nH]c(=O)/c(=C/c2ccccc2)[nH]c1=O", 16.6),
    ("CCOC(=O)\\C1=C(/C)N\\C2=C(C1C3=CC=C(C=C3)C4=CC=CC=C4)\\C(=O)CC(C)(C)C2 (stereo not drawn)", 134),
    ("N=C(NCCCCCCNC(=N)NC(=N)Nc1ccc(Cl)cc1)NC(=N)Nc1ccc(Cl)cc1", 104),
    ("O=c1[nH]c2ccccc2n1C1CCN(Cc2ccc(-c3nc4cc5nc[nH]c5cc4nc3-c3ccccc3)cc2)CC1", 79.1),
    ("COCCCN1CCC(NC(=O)c2cc(Cl)c(N)c3c2OCC3)CC1", 116),
]
